ASSAY_DETAILS: cytotoxicity in IL-1B stimulated HUVEC, primary screen, cytotoxicity control for IL-1B NFkB translocation project, imaging, Hoechst nuclear count, IL-1B stimulus (AID 845);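 further: normalized per plate to untreated control cells as the no-loss baseline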
EXPERIMENTAL_CONTEXT: HUVEC cell count loss, at 2 µM
The campaign covered roughly 94,000 compounds. About 390 (0.41%) were called active.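 How the source made its calls: active means cell count reduction more than 3 SD above the screen-wide mean (cut at about 70% in these data); inactive means the rest.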 The list comes from a sample in which actives are over-represented; it also holds close analogues and randomly drawn compounds.
Just give me one of these, please: active, inactive

Known results for compounds:
# COMPOUND, LABEL_VALUE
rows = [
    ("CSc1nnc2c(n1)OC(c1ccsc1)N(C(C)=O)c1ccccc1-2 (stereo unspecified)", "inactive"),
    ("CSc1nnc2c(n1)OC(c1cn(C)c3ccccc13)N(C(C)=O)c1ccccc1-2 (stereo unspecified)", "active"),
    ("COc1ccc(-c2cc(C(=O)NCc3ccco3)no2)cc1OC", "inactive"),
    ("COc1ccc(C(=O)OCC(=O)NCC2CCCCC2)cc1S(=O)(=O)N1CCCc2ccccc21", "inactive"),
    ("COc1ccc(C(=O)Oc2cc(/C=N/NS(=O)(=O)c3ccc(C)cc3)ccc2OC)cc1", "inactive"),
    ("O=C(OCC#CCSc1nnc(-c2ccncc2)o1)c1sc2ccccc2c1Cl", "inactive"),
]

Write down the call the test reported for this compound. Item: `CSc1ccc(C#N)cc1NC(=O)c1ccc(Cl)cc1` inactive

Write down the call the test reported for this compound. Item: `CC(C)(C)NC(=O)NC(=O)COC(=O)CCC1CCCCC1` inactive

Write down the call the test reported for this compound. Item: `Cc1nnc(SCC(=O)NC2CCCC2)s1` inactive

Write down the call the test reported for this compound. Item: `COc1ccc(NC(=O)Cn2c(=O)n(Cc3ccco3)c(=O)c3ccccc32)cc1` inactive

Write down the call the test reported for this compound. Item: `CCOc1cc(NC(=O)c2cnccn2)c(OCC)cc1NC(=O)c1ccc(C)cc1` inactive

* * *

ASSAY_DETAILS: cytotoxicity in IL-1B stimulated HUVEC, primary screen, cytotoxicity control for IL-1B NFkB translocation project, imaging, Hoechst nuclear count, IL-1B stimulus (AID 845);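 further: normalized per plate to untreated control cells as the no-loss baseline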
EXPERIMENTAL_CONTEXT: HUVEC cell count loss, at 2 µM, hits give high values
Hit rate of the full screen: of about 94,000 compounds, about 390 (0.41%) were called active. The full list was thinned out, with actives kept by preference.
Below, each entry is listed with its recorded cell count reduction.
Numbers only; they are read as %.

# annotated cases, reported cell count reduction shown
# COMPOUND, RESULT_UNIT, cell count reduction
rows = [
    ("CC1(C)N=C(c2ccccn2)C(C)(C)N1O", "%", 10.6),
    ("O=C(Nc1nnc(SCc2ccccc2)s1)c1ccco1", "%", -6.4),
    ("COc1cccc(/C=N\\Nc2nncc(-c3ccccc3)n2)c1", "%", 13.5),
    ("O=C(c1ccc(CN2CCOCC2)cc1)N1CCN(c2ccccc2F)CC1", "%", 2.7),
]

We now examine a further compound.
Measured cell count reduction of `COCCOCCn1cnc2ccccc21` : 11

* * *

Below, each entry is listed with its recorded cell count reduction.
ASSAY_DETAILS: cytotoxicity in IL-1B stimulated HUVEC, primary screen, cytotoxicity control for IL-1B NFkB translocation project, imaging, Hoechst nuclear count, IL-1B stimulus (AID 845);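 further: normalized per plate to untreated control cells as the no-loss baseline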
EXPERIMENTAL_CONTEXT: HUVEC cell count loss, at 2 µM, hits give high values
In all, about 94,000 compounds went through this assay and about 390 (0.41%) were called active. Shown is part of a subset that was picked to be rich in actives.
Numbers only; they are read as %.

# annotated cases, reported cell count reduction shown
# MOLECULE, QUANTITY_KIND, MEAS_VALUE
records = [
    ("COCCCNC(=O)CN1CCN(Cc2ccccc2Cl)C1=O", "cell count reduction", -10.5),
    ("Cc1ccc(CNC(=O)CCNS(=O)(=O)c2cccc3nonc23)cc1", "cell count reduction", 1.4),
    ("O=C(CSc1nnc(Cn2cnc3ccccc32)o1)c1ccccc1", "cell count reduction", 92.1),
    ("CCN(CC)S(=O)(=O)c1ccc(N2CCOCC2)c(C(=O)O)c1", "cell count reduction", 5.3),
    ("CCOC(=O)C(C)n1cnc2sc(C)c(C)c2c1=O (stereo unspecified)", "cell count reduction", -9.7),
]

Measured cell count reduction of Cc1c(Br)c([N+](=O)[O-])nn1C(C)C(=O)Nc1nccs1 (stereo unspecified) : 4.9

Measured cell count reduction of `Cc1cc(C)cc(OCC(=O)Nc2nc3ccc([N+](=O)[O-])cc3s2)c1` : 3.2

Measured cell count reduction of CCN1CCCC1Cn1cnc2c([nH]c3cc(OC)ccc32)c1=O (stereo unspecified) : -4.3
